- target system: mGluR5 receptor (pig) (Sus scrofa)
- Sequence (I3LUI7 19-1212): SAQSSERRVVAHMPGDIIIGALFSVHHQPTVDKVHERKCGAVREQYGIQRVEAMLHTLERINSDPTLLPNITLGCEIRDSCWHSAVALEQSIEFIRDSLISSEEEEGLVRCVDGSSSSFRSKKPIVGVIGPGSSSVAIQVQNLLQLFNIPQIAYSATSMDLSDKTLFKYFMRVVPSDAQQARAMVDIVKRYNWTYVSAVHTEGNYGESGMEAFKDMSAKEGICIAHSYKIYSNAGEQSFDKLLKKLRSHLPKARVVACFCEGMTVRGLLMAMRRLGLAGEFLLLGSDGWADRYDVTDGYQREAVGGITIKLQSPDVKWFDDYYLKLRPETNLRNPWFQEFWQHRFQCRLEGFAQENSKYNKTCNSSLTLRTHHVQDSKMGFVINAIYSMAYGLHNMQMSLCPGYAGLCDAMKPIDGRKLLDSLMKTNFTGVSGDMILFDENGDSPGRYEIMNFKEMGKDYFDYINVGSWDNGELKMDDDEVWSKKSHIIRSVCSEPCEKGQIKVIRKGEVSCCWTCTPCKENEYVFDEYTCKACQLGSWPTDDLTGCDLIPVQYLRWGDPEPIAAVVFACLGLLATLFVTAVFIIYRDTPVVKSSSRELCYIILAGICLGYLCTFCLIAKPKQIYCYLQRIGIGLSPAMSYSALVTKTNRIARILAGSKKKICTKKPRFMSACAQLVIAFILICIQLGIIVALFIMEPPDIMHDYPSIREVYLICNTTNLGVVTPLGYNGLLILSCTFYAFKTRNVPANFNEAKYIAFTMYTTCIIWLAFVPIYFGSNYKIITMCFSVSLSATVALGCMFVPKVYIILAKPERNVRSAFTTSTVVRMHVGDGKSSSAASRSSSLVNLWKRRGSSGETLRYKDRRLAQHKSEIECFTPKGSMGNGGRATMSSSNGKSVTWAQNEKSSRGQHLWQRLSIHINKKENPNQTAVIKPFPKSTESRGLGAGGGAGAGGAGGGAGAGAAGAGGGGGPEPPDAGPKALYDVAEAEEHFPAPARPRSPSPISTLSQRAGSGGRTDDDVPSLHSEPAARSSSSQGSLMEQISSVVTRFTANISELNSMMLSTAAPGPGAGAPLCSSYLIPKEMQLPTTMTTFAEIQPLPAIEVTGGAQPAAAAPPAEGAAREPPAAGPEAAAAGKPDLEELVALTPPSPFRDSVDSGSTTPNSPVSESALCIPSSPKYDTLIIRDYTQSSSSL
Counter-ions that a name gives are not always drawn.
Each item that follows carries a reported pIC50.
FYI, pIC50 means -log10 of a concentration in mol per litre.

Answered cases to consult:
molecule	test result
CC(C)(C)Nc1c(-c2ccc(C#Cc3ncccn3)s2)nc2sccn12 [Example 15]	8.00
Cc1csc2nc(-c3ccc(C#Cc4ccccn4)s3)c(NC(C)(C)C)n12 [Example 3, hydrochloride]	7.92
Cc1cccnc1C#Cc1ccc(-c2nc3sccn3c2NC(C)(C)C)s1 [Example 23]	6.64

Query block: Using known records, supply pIC50 for CC(C)(C)CC(C)(C)Nc1c(-c2ccc(C#Cc3ccccn3)s2)nc2sccn12 [Example 10]
Result block: 7.00

Query block: Using known records, supply pIC50 for COC(=O)c1cn2c(NC(C)(C)C)c(-c3ccc(C#Cc4ccccn4)s3)nc2s1 [Example 8, hydrochloride]
Result block: 6.80

* * *

- target system: mGluR5 receptor (human) (Homo sapiens, UniProt P41594)
- Construct: incubated overnight with doxycycline)
- Sequence (P41594 21-1212): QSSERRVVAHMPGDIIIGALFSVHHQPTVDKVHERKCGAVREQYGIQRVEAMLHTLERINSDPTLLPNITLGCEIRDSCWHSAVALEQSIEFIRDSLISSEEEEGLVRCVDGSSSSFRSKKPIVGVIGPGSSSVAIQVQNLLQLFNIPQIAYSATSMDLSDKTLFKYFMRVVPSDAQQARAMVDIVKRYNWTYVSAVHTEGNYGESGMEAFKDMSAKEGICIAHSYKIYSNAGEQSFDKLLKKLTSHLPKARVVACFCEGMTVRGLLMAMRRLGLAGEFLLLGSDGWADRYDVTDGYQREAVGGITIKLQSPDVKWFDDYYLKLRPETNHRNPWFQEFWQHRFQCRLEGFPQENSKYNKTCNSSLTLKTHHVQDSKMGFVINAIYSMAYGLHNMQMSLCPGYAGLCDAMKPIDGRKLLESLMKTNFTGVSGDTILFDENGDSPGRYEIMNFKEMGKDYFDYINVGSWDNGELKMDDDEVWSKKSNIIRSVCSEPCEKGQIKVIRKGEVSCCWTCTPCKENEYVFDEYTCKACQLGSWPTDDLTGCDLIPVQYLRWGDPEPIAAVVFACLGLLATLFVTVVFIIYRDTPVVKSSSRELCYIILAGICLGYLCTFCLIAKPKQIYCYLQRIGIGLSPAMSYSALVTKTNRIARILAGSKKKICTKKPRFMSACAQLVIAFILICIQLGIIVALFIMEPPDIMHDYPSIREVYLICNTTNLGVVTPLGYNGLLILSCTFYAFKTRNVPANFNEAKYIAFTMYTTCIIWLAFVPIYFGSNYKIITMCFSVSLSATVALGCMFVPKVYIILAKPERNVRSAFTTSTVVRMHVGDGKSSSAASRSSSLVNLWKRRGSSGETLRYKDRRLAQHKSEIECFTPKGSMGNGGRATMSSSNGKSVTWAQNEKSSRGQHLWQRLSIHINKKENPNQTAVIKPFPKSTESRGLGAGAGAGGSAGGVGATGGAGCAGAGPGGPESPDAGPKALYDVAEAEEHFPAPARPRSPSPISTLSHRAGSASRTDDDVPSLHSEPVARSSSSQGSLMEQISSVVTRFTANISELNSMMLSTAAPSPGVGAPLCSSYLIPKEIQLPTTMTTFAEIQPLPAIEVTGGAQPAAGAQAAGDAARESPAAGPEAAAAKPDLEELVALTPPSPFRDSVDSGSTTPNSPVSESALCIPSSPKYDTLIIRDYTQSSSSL
- test summary: Functional Ca2+ influx assay in CHO-hmGluR5 cells (DHPG-stimulated, FLIPR)
- study conditions: 10 μM DHPG, Ki=IC50/(1+AGConc./EC50)
Each item that follows carries a reported pKi.
FYI, pKi means -log10 of a concentration in mol per litre.

structure notation	pKi
CC(C)(C)Nc1c(-c2ccc(C#Cc3ccncc3)s2)nc2sccn12	9.59

Query block: Output reported pKi of the molecule Cc1cn2c(NC(C)(C)C)c(-c3ccc(C#Cc4ccccn4)s3)nc2s1 on mGluR5 receptor (human) (Homo sapiens, UniProt P41594).
Result block: 9.51

* * *

Structures can show the parent of a compound that is named as a salt.
Endpoint: log10 IC50. System: UniProt:I3LUI7. Items follow.
Short version: log10 scale, IC50, nM.

Answered cases to consult:
compound	log10 IC50
CC(C)(C)Nc1c(-c2ccc(C#Cc3nccs3)s2)nc2sccn12	1.38
CC(C)(C)Nc1c(-c2ccc(C#Cc3ccccn3)s2)nc2sccn12	0.80
CC(C)(C)Nc1c(-c2ccc(C#Cc3cccc(C#N)c3)s2)nc2sccn12	1.41
CC(C)(C)Nc1c(-c2ccc(C#Cc3ccccn3)s2)nc2sc(Cl)cn12 [Example 6, hydrochloride]	1.00
Nc1c(-c2ccc(C#Cc3ccccn3)s2)nc2sccn12	2.15

Query block: Output reported log10 IC50 of the compound Cc1cn2c(NC(C)(C)C)c(-c3ccc(C#Cc4ccccn4)s3)nc2s1 on UniProt:I3LUI7.
Result block: 0.74

Query block: Output reported log10 IC50 of the compound CC(C)(C)Nc1c(-c2ccc(C#Cc3cccs3)s2)nc2sccn12 on UniProt:I3LUI7.
Result block: 1.65

Query block: Output reported log10 IC50 of the compound CC(C)(C)CC(C)(C)Nc1c(-c2ccc(C#Cc3ccccc3)s2)nc2sccn12 on UniProt:I3LUI7.
Result block: 3.34

Query block: Output reported log10 IC50 of the compound Cc1sc2nc(-c3ccc(C#Cc4ccccn4)s3)c(NC(C)(C)C)n2c1C [Example 5, hydrochloride] on UniProt:I3LUI7.
Result block: 1.23
